- Tested System: human DGKα (Homo sapiens (Human))
- Sequence (P23743 other isoform, or with tags, fused parts or gaps): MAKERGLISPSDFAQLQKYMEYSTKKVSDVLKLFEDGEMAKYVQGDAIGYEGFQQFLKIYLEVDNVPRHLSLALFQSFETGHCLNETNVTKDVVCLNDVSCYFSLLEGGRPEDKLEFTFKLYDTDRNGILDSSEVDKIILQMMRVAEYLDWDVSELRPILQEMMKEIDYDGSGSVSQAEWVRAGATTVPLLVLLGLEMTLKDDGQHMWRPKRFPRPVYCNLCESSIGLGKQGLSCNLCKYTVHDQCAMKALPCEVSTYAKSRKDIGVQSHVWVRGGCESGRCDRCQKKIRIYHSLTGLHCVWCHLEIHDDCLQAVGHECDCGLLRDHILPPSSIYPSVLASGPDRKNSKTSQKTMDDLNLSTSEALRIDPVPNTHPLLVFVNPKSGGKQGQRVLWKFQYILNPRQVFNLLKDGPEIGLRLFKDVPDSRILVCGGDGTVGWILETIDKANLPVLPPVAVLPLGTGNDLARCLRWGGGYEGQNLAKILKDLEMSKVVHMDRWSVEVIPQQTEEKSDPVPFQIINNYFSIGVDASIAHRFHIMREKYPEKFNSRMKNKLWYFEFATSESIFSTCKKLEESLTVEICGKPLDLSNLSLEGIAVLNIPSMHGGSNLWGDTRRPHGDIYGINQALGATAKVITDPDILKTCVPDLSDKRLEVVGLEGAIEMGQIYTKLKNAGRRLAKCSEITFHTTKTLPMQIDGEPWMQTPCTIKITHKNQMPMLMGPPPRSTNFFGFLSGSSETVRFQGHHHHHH
- Test Name: biochemical
- Condition: detergent/lipid micelle substrate; read-out: DGKα IC50
pIC50: −log10 of the molar value.
# pIC50 per record follows
Assay Metric: pIC50

>  <Compound>
Cn1c(=O)c(C#N)c(N2CCN(Cc3cccc4ccccc34)CC2)c2nc(Cl)ccc21

>  <Assay Metric>
pIC50

>  <Inequality Symbol>
=

>  <Reading>
6.13

$$$$
>  <Compound>
COc1ccc(O)c(CN2CCN(c3c(C#N)c(=O)n(C)c4ccc(Cl)nc34)CC2)c1

>  <Assay Metric>
pIC50

>  <Inequality Symbol>
=

>  <Reading>
6.89

$$$$
>  <Compound>
Cn1c(=O)c(C#N)c(N2CCN(Cc3cc(Cl)ccc3O)CC2)c2nc(Cl)ccc21

>  <Assay Metric>
pIC50

>  <Inequality Symbol>
=

>  <Reading>
6.77

$$$$
>  <Compound>
Cn1c(=O)c(C#N)c(N2CCN(CC(O)c3ccc(F)cc3)CC2)c2nc(Br)ccc21 (single isomer, unassigned) [Example 30]

>  <Assay Metric>
pIC50

>  <Inequality Symbol>
=

>  <Reading>
5.74

$$$$
>  <Compound>
Cc1ccc(CN2CCN(c3c(C#N)c(=O)n(C)c4ccc(Cl)nc34)CC2)cc1F

>  <Assay Metric>
pIC50

>  <Inequality Symbol>
=

>  <Reading>
6.60

$$$$
>  <Compound>
Cn1c(=O)c([N+](=O)[O-])c(N2CCN(C(c3ccc(F)cc3)c3cccc(F)c3O)CC2)c2nc(Br)ccc21 (single isomer, unassigned) [Example 76]

>  <Assay Metric>
pIC50

>  <Inequality Symbol>
=

>  <Reading>
5.26

$$$$
>  <Compound>
Cn1c(=O)c(C#N)c(N2CCN(Cc3cc(O)cc(Cl)c3)CC2)c2nc(Cl)ccc21

>  <Assay Metric>
pIC50

>  <Inequality Symbol>
=

>  <Reading>
5.34

$$$$
>  <Compound>
Cn1c(=O)c(C#N)c(N2CCN(Cc3ccc(Cl)c(O)c3)CC2)c2nc(C#N)ccc21

>  <Assay Metric>
pIC50

>  <Inequality Symbol>
=

>  <Reading>
5.96

$$$$
>  <Compound>
Cn1c(=O)c(C#N)c(N2CCN(Cc3ccc(C(F)(F)F)c(F)c3)CC2)c2nc(Cl)ccc21

>  <Assay Metric>
pIC50

>  <Inequality Symbol>
=

>  <Reading>
5.80

$$$$
>  <Compound>
Cn1c(=O)c(C#N)c(N2CCN(Cc3ccc(Cl)cc3O)CC2)c2nc(Br)ccc21

>  <Assay Metric>
pIC50

>  <Inequality Symbol>
=

>  <Reading>
7.57

$$$$
>  <Compound>
C#CCn1c(=O)c(C#N)c(N2CCN(Cc3ccc(C)cc3O)CC2)c2nc(Br)ccc21

>  <Assay Metric>
pIC50

>  <Inequality Symbol>
=

>  <Reading>
7.08

$$$$
>  <Compound>
N#Cc1c(N2CCN(C(c3ccc(F)cc3)c3ccc(F)cc3)CC2)c2nc(Br)ccc2n(CC2CC2)c1=O

>  <Assay Metric>
pIC50

>  <Inequality Symbol>
<

>  <Reading>
3.62

$$$$
>  <Compound>
N#CCn1c(=O)c(C#N)c(N2CCN(C(c3ccc(F)cc3)c3ccccc3O)CC2)c2nc(Br)ccc21 (stereo not drawn)

>  <Assay Metric>
pIC50

>  <Inequality Symbol>
=

>  <Reading>
4.28

$$$$
>  <Compound>
COc1cccc(CN2CCN(c3c(C#N)c(=O)n(C)c4ccc(Cl)nc34)CC2)c1O

>  <Assay Metric>
pIC50

>  <Inequality Symbol>
=

>  <Reading>
6.64

$$$$
>  <Compound>
Cn1c(=O)c(C#N)c(N2CCN(Cc3ccc(F)cc3)CC2)c2nc(Cl)ccc21

>  <Assay Metric>
pIC50

>  <Inequality Symbol>
=

>  <Reading>
6.72

$$$$

---

- Tested System: human DGKζ (Homo sapiens (Human))
- Test Name: DGKζ assay (detergent/lipid micelle substrate)
- Type: biochemical
- Condition: detergent/lipid micelle substrate; read-out: DGKζ IC50
pIC50: −log10 of the molar value.
# pIC50 per record follows

>  <Molecule>
Cn1c(=O)c(C#N)c(N2CCN(Cc3ccc(Cl)cc3O)CC2)c2nc(Cl)ccc21 [Example 288]

>  <pIC50>
< 3.62

$$$$
>  <Molecule>
COc1ccccc1CN1CCN(c2c(C#N)c(=O)n(C)c3ccc(Cl)nc23)CC1 [Example 331]

>  <pIC50>
< 3.62

$$$$
>  <Molecule>
Cn1c(=O)c(C#N)c(N2CCN(Cc3cc(F)cc(F)c3O)CC2)c2nc(Br)ccc21 [Example 320]

>  <pIC50>
< 3.62

$$$$
>  <Molecule>
N#CCCCn1c(=O)c([N+](=O)[O-])c(N2CCN(C(c3ccccc3)c3ccccc3)CC2)c2ncccc21 [Example 183]

>  <pIC50>
< 3.62

$$$$
>  <Molecule>
COc1cccc(O)c1CN1CCN(c2c(C#N)c(=O)n(C)c3ccc(Br)nc23)CC1 [Example 314]

>  <pIC50>
4.09

$$$$
>  <Molecule>
Cn1c(=O)c(C#N)c(N2CCN(Cc3ccccc3O)CC2)c2nc(C#N)ccc21 [Example 317]

>  <pIC50>
4.47

$$$$
>  <Molecule>
Cn1c(=O)c(C#N)c(N2CCN(Cc3cc(Cl)ccc3O)CC2)c2nc(Cl)ccc21 [Example 370]

>  <pIC50>
< 3.62

$$$$
>  <Molecule>
Cn1c(=O)c(C#N)c(N2CCN(C(c3ccccc3)c3ccccc3)CC2)c2ncccc21 [Example 196]

>  <pIC50>
< 3.62

$$$$

---

# pIC50 per record follows
- Tested System: human DGKζ (Homo sapiens (Human), UniProt Q13574)
- Sequence (Q13574 other isoform, or with tags, fused parts or gaps): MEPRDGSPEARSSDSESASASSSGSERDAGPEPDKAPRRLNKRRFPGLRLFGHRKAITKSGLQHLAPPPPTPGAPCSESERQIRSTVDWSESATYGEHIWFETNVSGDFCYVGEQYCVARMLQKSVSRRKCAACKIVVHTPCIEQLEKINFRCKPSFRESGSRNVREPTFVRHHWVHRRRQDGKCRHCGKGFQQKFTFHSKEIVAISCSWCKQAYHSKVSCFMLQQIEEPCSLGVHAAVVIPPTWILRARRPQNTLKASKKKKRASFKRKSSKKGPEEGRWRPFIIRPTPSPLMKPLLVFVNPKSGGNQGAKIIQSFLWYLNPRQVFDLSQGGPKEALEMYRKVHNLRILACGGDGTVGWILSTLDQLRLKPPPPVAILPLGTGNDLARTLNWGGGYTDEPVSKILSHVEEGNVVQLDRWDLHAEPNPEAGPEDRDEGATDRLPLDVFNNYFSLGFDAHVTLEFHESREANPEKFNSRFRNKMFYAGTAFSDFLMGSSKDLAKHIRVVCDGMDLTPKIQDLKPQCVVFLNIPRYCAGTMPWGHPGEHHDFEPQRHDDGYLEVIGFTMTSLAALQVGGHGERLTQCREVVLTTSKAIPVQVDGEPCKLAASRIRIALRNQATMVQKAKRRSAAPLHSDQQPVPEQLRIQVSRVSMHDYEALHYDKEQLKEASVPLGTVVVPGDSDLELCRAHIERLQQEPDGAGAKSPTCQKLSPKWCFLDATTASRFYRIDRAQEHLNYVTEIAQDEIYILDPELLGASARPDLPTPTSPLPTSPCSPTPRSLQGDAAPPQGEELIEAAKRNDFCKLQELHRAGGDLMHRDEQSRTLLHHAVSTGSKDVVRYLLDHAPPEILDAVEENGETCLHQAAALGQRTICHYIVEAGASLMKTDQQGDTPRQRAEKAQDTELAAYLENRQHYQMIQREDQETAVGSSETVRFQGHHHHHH
- Test Name: DGKζ assay (detergent/lipid micelle substrate)
- Format: biochemical
- Condition: detergent/lipid micelle substrate; read-out: DGKζ IC50
pIC50: −log10 of the molar value.
Assay Metric: pIC50

>  <Molecule>
COCCn1c(=O)c(C#N)c(N2CCN(C(c3ccc(F)cc3)c3ccc(F)cc3OC)CC2)c2nc(Br)ccc21 (single isomer, unassigned) [Example 116]

>  <Reading>
< 3.62

$$$$
>  <Molecule>
N#CCn1c(=O)c(C#N)c(N2CCN(C(c3ccc(F)cc3)c3ccccc3O)CC2)c2nc(Br)ccc21 (stereo not shown) [Example 157]

>  <Reading>
4.59

$$$$
>  <Molecule>
Cn1c(=O)c(C#N)c(N2CCN(C(c3ccc(F)cc3)c3ccc(F)cc3)CC2)c2nc(Cl)ccc21 [Example 218]

>  <Reading>
< 4.09

$$$$
>  <Molecule>
Cn1c(=O)c(C#N)c(N2CCN(Cc3cc(O)cc(Cl)c3)CC2)c2nc(Cl)ccc21 [Example 345]

>  <Reading>
< 3.62

$$$$

---

- Tested System: human DGKζ (Homo sapiens (Human), UniProt Q13574)
- Test Name: DGKζ assay (detergent/lipid micelle substrate)
- Assay type: biochemical
- Condition: detergent/lipid micelle substrate; read-out: DGKζ IC50
- Description: The DGKα and DGKζ reactions were performed using either extruded liposome (DGKα and DGKζ LIPGLO assays) or detergent/lipid micelle substrate (DGKα and DGKζ assays). […] The compound inhibition studies were carried out as follows: 50 nL droplets of each test compound (top concentration 10 mM with 11 point, 3-fold dilution series for each compound) solubilized in DMSO were transferred to wells of a white 1536 well plate (Corning 3725). […] Luminescence was recorded using an EnVision microplate reader. […]
pIC50: −log10 of the molar value.
# pIC50 per record follows

>  <Molecule>
Cn1c(=O)c(C#N)c(N2CCN(C(c3ccc(F)cc3)c3ccccc3O)CC2)c2nc(C#N)ccc21 (centres unmarked) [Example 11]

>  <Inequality Symbol>
=

>  <pIC50>
5.40

$$$$
>  <Molecule>
Cn1c(=O)c(C#N)c(N2CCN(Cc3c(O)cccc3F)CC2)c2nc(Br)ccc21 [Example 294]

>  <Inequality Symbol>
<

>  <pIC50>
3.62

$$$$
>  <Molecule>
Cc1cccc(OCc2cncc(C#N)c2)c1C(c1ccc(F)cc1)N1CCN(c2c([N+](=O)[O-])c(=O)n(C)c3ccc(Br)nc23)CC1 (single isomer, unassigned) [Example 90]

>  <Inequality Symbol>
=

>  <pIC50>
3.72

$$$$
>  <Molecule>
COc1ccccc1C(c1ccc(F)cc1)N1CCN(c2c(C#N)c(=O)n(C)c3ccc(Br)nc23)CC1 (single isomer, unassigned) [Example 13]

>  <Inequality Symbol>
<

>  <pIC50>
3.62

$$$$
>  <Molecule>
COc1cccc(C)c1C(c1ccc(F)cc1)N1CCN(c2c([N+](=O)[O-])c(=O)n(C)c3ccc(Br)nc23)CC1 (single isomer, unassigned) [Example 61]

>  <Inequality Symbol>
=

>  <pIC50>
5.66

$$$$
>  <Molecule>
Cc1ccc2c(n1)c(N1CCN(C(c3ccc(F)cc3)c3ccc(F)cc3)CC1)cc(=O)n2C [Example 427]

>  <Inequality Symbol>
<

>  <pIC50>
3.62

$$$$
>  <Molecule>
Cn1c(=O)c([N+](=O)[O-])c(N2CCN(C(CO)c3ccc(F)cc3)CC2)c2nc(C#N)ccc21 (centres unmarked) [Example 37]

>  <Inequality Symbol>
=

>  <pIC50>
4.42

$$$$
>  <Molecule>
Cn1c(=O)c(C#N)c(N2CCN(C(c3ccc(F)cc3)c3ccc(F)cc3)CC2)c2nc(C#N)ccc21 [Example 217]

>  <Inequality Symbol>
=

>  <pIC50>
5.35

$$$$
>  <Molecule>
Cn1c(=O)c(C#N)c(N2CCN(Cc3cccc(O)c3)CC2)c2nc(Cl)ccc21 [Example 351]

>  <Inequality Symbol>
=

>  <pIC50>
3.72

$$$$
>  <Molecule>
Cc1ccc2c(n1)c(N1CCN(Cc3cccc(Br)c3O)CC1)c(C#N)c(=O)n2C [Example 286]

>  <Inequality Symbol>
=

>  <pIC50>
3.85

$$$$
>  <Molecule>
CCn1ccc2c(CN3CCN(c4c([N+](=O)[O-])c(=O)n(C)c5ccc(Br)nc45)CC3)cccc21 [Example 54]

>  <Inequality Symbol>
=

>  <pIC50>
5.14

$$$$
>  <Molecule>
COc1cccc(CN2CCN(c3c(C#N)c(=O)n(C)c4ccc(Cl)nc34)CC2)c1O [Example 371]

>  <Inequality Symbol>
=

>  <pIC50>
3.77

$$$$
>  <Molecule>
Cn1c(=O)c(C#N)c(N2CCN(Cc3cc(Cl)cc(Cl)c3O)CC2)c2nc(Cl)ccc21 [Example 307]

>  <Inequality Symbol>
<

>  <pIC50>
4.09

$$$$
>  <Molecule>
COc1ccc2c(c1)C(N1CCN(c3c(C#N)c(=O)n(C)c4ccc(Br)nc34)CC1)CC2 (centres unmarked) [Example 21]

>  <Inequality Symbol>
=

>  <pIC50>
4.03

$$$$
